Biological target: Histone-lysine N-methyltransferase EZH2 (Homo sapiens, UniProt Q15910)
Sequence (Q15910 whole entry, looked up): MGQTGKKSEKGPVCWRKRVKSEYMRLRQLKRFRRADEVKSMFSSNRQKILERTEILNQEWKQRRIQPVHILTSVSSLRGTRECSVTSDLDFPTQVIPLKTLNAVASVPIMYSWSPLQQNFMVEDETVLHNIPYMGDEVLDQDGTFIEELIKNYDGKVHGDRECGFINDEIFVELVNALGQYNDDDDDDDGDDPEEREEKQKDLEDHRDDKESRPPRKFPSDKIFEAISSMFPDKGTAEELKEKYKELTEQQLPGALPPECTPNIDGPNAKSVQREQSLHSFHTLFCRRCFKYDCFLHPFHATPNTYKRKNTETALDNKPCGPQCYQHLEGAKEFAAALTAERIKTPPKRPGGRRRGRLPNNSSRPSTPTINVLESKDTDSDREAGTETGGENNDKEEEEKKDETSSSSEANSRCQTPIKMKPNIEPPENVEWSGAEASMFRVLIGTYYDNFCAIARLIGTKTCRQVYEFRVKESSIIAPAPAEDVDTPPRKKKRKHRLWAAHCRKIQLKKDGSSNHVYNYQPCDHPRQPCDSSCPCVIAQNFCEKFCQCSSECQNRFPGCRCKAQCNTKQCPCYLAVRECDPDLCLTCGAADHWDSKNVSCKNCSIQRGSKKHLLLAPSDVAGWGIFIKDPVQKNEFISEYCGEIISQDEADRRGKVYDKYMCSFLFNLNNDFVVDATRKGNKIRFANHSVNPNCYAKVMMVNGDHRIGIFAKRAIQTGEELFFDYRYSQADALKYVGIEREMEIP
Assay: Inhibition of PRC2 EZH2 sub unit (unknown origin) assessed as inhibition of SAM-mediated methyl transfer process at 50 uM preincubated for 15 mins followed by addition of H3K27me and [3H]SAM as substrate measured after 90 mins by radioactive methylation assay
Measurement type: inhibition (%)

Compound	Value observed
NC(=O)CCN1CCN(CCOC2Cc3cc(Cl)ccc3Sc3ccccc32)CC1 (stereo unspecified)	-6
CCOC(=O)C[n+]1ccc2c([nH]c3ccccc32)c1C	7
Cc1cc(C)nc(NC2=NCCS2)n1	16
Cn1c(=O)cc2c3c(c(N4CCOCC4)ccc31)C(=O)c1ccccc1-2	9
Cc1ccc2nc(N=C(N)N)nc(C)c2c1	3
Cn1c(-c2ccc(C=O)o2)nc2c3ccccc3c3ccccc3c21	52
